protocolNotes: Displacement of [3H]DTH from sigma 2 receptor in rat liver homogenate in presence of (+)-pentazocine
Type: tissue-based
quantityMeasured: Ki (nM)

As a guide, the following entries are already answered.
(Q) Output Ki of CN(CCCCc1cn(-c2ccc(F)cc2)c2ccccc12)Cc1cccc(Cl)c1
(A) 25.6

(Q) Output Ki of COc1cccc2c1CCCC2CCCCN1CCN(C2CCCCC2)CC1 (configuration not stated)
(A) 0.34

(Q) Output Ki of Cc1ccc(CN(C)CCCCc2cn(-c3ccc(F)cc3)c3ccccc23)cc1C
(A) 5.9

(Q) Output Ki of CN(CCCc1cn(-c2ccc(F)cc2)c2ccccc12)Cc1cccc(Cl)c1
(A) 124

(Q) Output Ki of CN(CCCCc1cn(-c2ccc(F)cc2)c2ccccc12)Cc1ccccc1
(A) 57.7

P: Cc1ccc(CN(C)CCCc2cn(-c3ccc(F)cc3)c3ccccc23)cc1C
Q: CN(CCCc1cn(-c2ccc(F)cc2)c2ccccc12)Cc1ccccc1
(Q) Identify the entry with the smaller Ki: P or Q . Record your answer as the label of the chosen record.
(A) P
(P: 46.9 nM, Q: 444 nM)
